The origin of these recorded values is patent US20260242735A1.

Experimental System: human CD33 S68A (human, UniProt P20138 18-364)
Sequence (P20138 18-364 S68A limits assumed): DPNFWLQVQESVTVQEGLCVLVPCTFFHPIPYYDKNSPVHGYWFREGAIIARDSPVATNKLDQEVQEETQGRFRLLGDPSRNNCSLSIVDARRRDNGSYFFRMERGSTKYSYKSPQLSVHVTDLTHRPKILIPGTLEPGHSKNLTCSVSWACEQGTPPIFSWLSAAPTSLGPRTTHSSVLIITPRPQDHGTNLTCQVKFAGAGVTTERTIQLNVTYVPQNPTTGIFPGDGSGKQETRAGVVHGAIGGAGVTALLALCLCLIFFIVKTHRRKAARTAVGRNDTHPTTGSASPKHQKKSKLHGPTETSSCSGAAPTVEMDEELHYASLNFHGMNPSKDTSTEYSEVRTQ
Experimental Details: alanine scan, flow cytometry;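 further: HEK293-T cells transiently expressing single-residue alanine mutants of CD33 (alanine swapped to serine), antibody binding read by fluorescence in duplicate, background-subtracted, expressed relative to wild-type CD33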
Would you mind telling me the reported Mean % WT Binding of each entry?
One number for each entry, in % WT.

Binder	Mean % WT Binding, % WT
Refmab #2 (antibody, V domains shown, Full-length format is human IgG1 Fc silent (PG-LALA); The alanine scan used IgG or Fab) VH: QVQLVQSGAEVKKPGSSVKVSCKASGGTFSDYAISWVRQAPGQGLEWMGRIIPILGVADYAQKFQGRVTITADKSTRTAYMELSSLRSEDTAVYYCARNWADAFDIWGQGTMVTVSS VL: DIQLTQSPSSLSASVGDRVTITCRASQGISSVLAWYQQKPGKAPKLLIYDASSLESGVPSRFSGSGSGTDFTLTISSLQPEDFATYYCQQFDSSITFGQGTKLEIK	112

Could I get Mean % WT Binding for every one of these entries?
1. Refmab #4 (antibody, V domains shown, Full-length format is human IgG1 Fc silent (PG-LALA); The alanine scan used IgG or Fab) VH: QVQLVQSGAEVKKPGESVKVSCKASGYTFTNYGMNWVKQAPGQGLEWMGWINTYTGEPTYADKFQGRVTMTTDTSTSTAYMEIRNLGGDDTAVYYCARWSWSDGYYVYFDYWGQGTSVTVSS VL: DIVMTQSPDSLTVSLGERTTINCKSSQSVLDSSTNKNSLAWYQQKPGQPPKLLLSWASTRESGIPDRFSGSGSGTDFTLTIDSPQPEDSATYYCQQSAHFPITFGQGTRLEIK
2. Refmab #3 (antibody, V domains shown, Full-length format is human IgG1 Fc silent (PG-LALA); The alanine scan used IgG or Fab) VH: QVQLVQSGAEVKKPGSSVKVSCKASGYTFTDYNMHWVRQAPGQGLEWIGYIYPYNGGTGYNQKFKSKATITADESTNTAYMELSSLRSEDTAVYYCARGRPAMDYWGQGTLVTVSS VL: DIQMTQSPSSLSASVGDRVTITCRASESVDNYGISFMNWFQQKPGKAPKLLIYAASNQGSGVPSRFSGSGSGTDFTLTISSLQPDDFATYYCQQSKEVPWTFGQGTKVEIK
3. Refmab #1 (antibody, V domains shown, Full-length format is human IgG1 (Absolute Antibody Ab00283-10.0); The alanine scan used IgG or Fab; also called hP67.6) VH: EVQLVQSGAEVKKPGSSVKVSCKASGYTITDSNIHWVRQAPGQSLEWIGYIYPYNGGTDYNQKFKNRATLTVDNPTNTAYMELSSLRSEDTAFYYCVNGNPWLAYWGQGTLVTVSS VL: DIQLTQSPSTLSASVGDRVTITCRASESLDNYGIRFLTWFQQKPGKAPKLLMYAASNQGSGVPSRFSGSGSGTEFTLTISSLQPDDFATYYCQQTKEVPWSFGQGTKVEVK

A)
90.4
115
91.3
